test system: 521955-158-R2-J5-PDC complex spheroids, viability; experiment: Anticancer human tumor 521955-158-R2-J5-PDC patient-derived pancreatic carcinoma cell line growth inhibition [RAS]; details: second compound 0.000949 µM; first compound 0.000949 µM; stronger effect = lower value
Measured endpoint: viability, T/C (%)
Give bare numbers, in %.

Compound	Test system	Unit symbol	viability, T/C
CCc1c2c(nc3ccc(O)cc13)-c1cc3c(c(=O)n1C2)COC(=O)[C@]3(O)CC + CCn1c(-c2cc(N3CCN(C)CC3)cnc2C(C)OC)c2c3cc(ccc31)-c1csc(n1)CC(NC(=O)C1CC1C)C(=O)N1CCCC(N1)C(=O)OCC(C)(C)C2	521955-158-R2-J5-PDC complex spheroids, viability	%	30.3
CC1(C)CCC(Nc2ncc(C(F)(F)F)c(-c3c[nH]c4c(P(C)(C)=O)c(C#N)ccc34)n2)CN1 (centres undefined) + CCn1c(-c2cc(N3CCN(C)CC3)cnc2C(C)OC)c2c3cc(ccc31)-c1csc(n1)CC(NC(=O)C1CC1C)C(=O)N1CCCC(N1)C(=O)OCC(C)(C)C2	521955-158-R2-J5-PDC complex spheroids, viability	%	33.7

Please report viability, T/C for every entry that follows.
1. CCc1c2c(nc3ccc(O)cc13)-c1cc3c(c(=O)n1C2)COC(=O)[C@]3(O)CC + CCn1c(-c2cccnc2C(C)OC)c2c3cc(ccc31)N1CCOC(CC(NC(=O)C(C(C)C)N(C)C(=O)C3(F)CCN(C(=O)C#CC(C)(C)N(C)C)CC3)C(=O)N3CCCC(N3)C(=O)OCC(C)(C)C2)C1
2. CC1(C)CCC(Nc2ncc(C(F)(F)F)c(-c3c[nH]c4c(P(C)(C)=O)c(C#N)ccc34)n2)CN1 (centres undefined) + CCn1c(-c2cccnc2C(C)OC)c2c3cc(ccc31)N1CCOC(CC(NC(=O)C(C(C)C)N(C)C(=O)C3(F)CCN(C(=O)C#CC(C)(C)N(C)C)CC3)C(=O)N3CCCC(N3)C(=O)OCC(C)(C)C2)C1

1. 97.8
2. 88.5

----------
tested on: 521955-158-R2-J5-PDC complex spheroids, viability; assay: Anticancer human tumor 521955-158-R2-J5-PDC cell line growth inhibition [RAS]; details: second compound 0.316 µM; first compound 0.0316 µM; stronger effect = lower value;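 also: compound exposure lasted seven days before the viability read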;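 as to viability, T/C: spheroids also contain HUVEC endothelial cells and mesenchymal stem cells as stroma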
Measured endpoint: viability, T/C (%)
Answers are plain numbers, in %.

Some solved cases for reference:
Molecule	viability, T/C (%)
CC(C)NCC(C(=O)N1CCN(c2ncnc3c2C(C)CC3O)CC1)c1ccc(Cl)cc1 (stereo not given) + C#Cc1c(F)ccc2cc(O)cc(-c3ncc4c(N5CC6CCC(C5)N6)nc(OCC56CCCN5CC(F)C6)nc4c3F)c12	43.6
CC(C)n1nc(-c2ccc3oc(N)nc3c2)c2c(N)ncnc21 + C=CC(=O)N1CCN(c2nc(OCC3CCCN3C)nc3c(F)c(-c4nc(N)cc(C)c4C(F)(F)F)c(Cl)cc23)C(C)C1	42.9
O=C(c1ccc(F)c(F)c1Nc1ccc(I)cc1F)N1CC(O)([C@@H]2CCCCN2)C1 + C=CC(=O)N1CCN(c2nc(OCC3CCCN3C)nc3c(F)c(-c4nc(N)cc(C)c4C(F)(F)F)c(Cl)cc23)C(C)C1	62.6
Nc1ccn(C2OC(CO)C(O)C2(F)F)c(=O)n1 (stereo not given) + C#Cc1c(F)ccc2cc(O)cc(-c3ncc4c(N5CC6CCC(C5)N6)nc(OCC56CCCN5CC(F)C6)nc4c3F)c12	28.8

Switching to the query record.
May I ask what viability, T/C has been recorded for CCC(CC)c1cc(NC2CCC(N)C2)n2nccc2n1 (stereo not given) + C=CC(=O)N1CCN(c2nc(OCC3CCCN3C)nc3c(F)c(-c4nc(N)cc(C)c4C(F)(F)F)c(Cl)cc23)C(C)C1 ?
145

----------
Tested on: 521955-158-R2-J5-PDC complex spheroids, viability
Assay: Anticancer human tumor 521955-158-R2-J5-PDC cell line growth inhibition [RAS];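 also: compound exposure lasted seven days before the viability read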;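 as to viability, T/C: spheroids also contain HUVEC endothelial cells and mesenchymal stem cells as stroma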
Details: second compound 0.003 µM; first compound 0.0316 µM; stronger effect = lower value
Description: RAS pathway inhibitors in Combinations in Complex Spheroids A high-throughput screen of multi-cell type tumor spheroids was designed to identify active combinations of RAS pathway inhibitors and targeted small molecules. Complex spheroids include a stromal component modeled by human endothelial cells (HUVEC) and fibroblasts modeled by human mesenchymal stem cells (MSCs). […] Compounds. […] If the clinical Cmax for an agent had not been determined, the highest concentration tested was 10 microM. […]
Exercise: for every item that follows, state its recorded viability, T/C.
Numbers only, in %.

Please report viability, T/C for every entry that follows.
1. Nc1ccn(C2OC(CO)C(O)C2(F)F)c(=O)n1 (configuration not stated) + CCn1c(-c2cccnc2C(C)OC)c2c3cc(ccc31)N1CCOC(CC(NC(=O)C(C(C)C)N(C)C(=O)C3(F)CCN(C(=O)C#CC(C)(C)N(C)C)CC3)C(=O)N3CCCC(N3)C(=O)OCC(C)(C)C2)C1
2. CC(C)n1nc(-c2ccc3oc(N)nc3c2)c2c(N)ncnc21 + CCn1c(-c2cc(N3CCN(C)CC3)cnc2C(C)OC)c2c3cc(ccc31)-c1csc(n1)CC(NC(=O)C1CC1C)C(=O)N1CCCC(N1)C(=O)OCC(C)(C)C2

[79.3, 11.2]

----------
Exercise: for every item that follows, state its recorded pIC50.
System: 521955-158-R2-J5-PDC complex spheroids, viability
Assay: Anticancer human tumor 521955-158-R2-J5-PDC cell line growth inhibition [RAS];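 also: compound exposure lasted seven days before the viability read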
Details: curve of first compound; second compound 0.003 µM
From the text: RAS pathway inhibitors in Combinations in Complex Spheroids A high-throughput screen of multi-cell type tumor spheroids was designed to identify active combinations of RAS pathway inhibitors and targeted small molecules. Complex spheroids include a stromal component modeled by human endothelial cells (HUVEC) and fibroblasts modeled by human mesenchymal stem cells (MSCs). […] Compounds. […] If the clinical Cmax for an agent had not been determined, the highest concentration tested was 10 microM. […]
Answers are plain numbers, as −log10 of the molar value.

Some solved cases for reference:
Compound	Measured endpoint	Numeric readout
Cc1nc(N2CCC3(CC2)COC(C)C3N)c(CO)nc1Sc1ccnc(N)c1Cl (stereo unspecified) + CCn1c(-c2cccnc2C(C)OC)c2c3cc(ccc31)N1CCOC(CC(NC(=O)C(C(C)C)N(C)C(=O)C3(F)CCN(C(=O)C#CC(C)(C)N(C)C)CC3)C(=O)N3CCCC(N3)C(=O)OCC(C)(C)C2)C1	pIC50	5.29
CCC(CC)c1cc(NC2CCC(N)C2)n2nccc2n1 (stereo unspecified) + CCn1c(-c2cc(N3CCN(C)CC3)cnc2C(C)OC)c2c3cc(ccc31)-c1csc(n1)CC(NC(=O)C1CC1C)C(=O)N1CCCC(N1)C(=O)OCC(C)(C)C2	pIC50	7.50

May I ask what pIC50 has been recorded for CCC(CC)c1cc(NC2CCC(N)C2)n2nccc2n1 (stereo unspecified) + CCn1c(-c2cccnc2C(C)OC)c2c3cc(ccc31)N1CCOC(CC(NC(=O)C(C(C)C)N(C)C(=O)C3(F)CCN(C(=O)C#CC(C)(C)N(C)C)CC3)C(=O)N3CCCC(N3)C(=O)OCC(C)(C)C2)C1 ?
5.72

----------
system: 521955-158-R2-J5-PDC complex spheroids, viability; test: Anticancer human tumor 521955-158-R2-J5-PDC cell line growth inhibition [RAS]; conditions: second compound 0.03 µM; first compound 0.0316 µM; stronger effect = lower value;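 also: compound exposure lasted seven days before the viability read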;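 as to viability, T/C: spheroids also contain HUVEC endothelial cells and mesenchymal stem cells as stroma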
Measured endpoint: viability, T/C

Some solved cases for reference:
Compound	viability, T/C
C[C@@H](NC(=O)c1ncnc(N)c1Cl)c1ncc(C(=O)Nc2cc(C(F)(F)F)c(Cl)cn2)s1 + CCn1c(-c2cccnc2C(C)OC)c2c3cc(ccc31)N1CCOC(CC(NC(=O)C(C(C)C)N(C)C(=O)C3(F)CCN(C(=O)C#CC(C)(C)N(C)C)CC3)C(=O)N3CCCC(N3)C(=O)OCC(C)(C)C2)C1	91.1%
NC1c2ccccc2OC12CCN(c1cnc3c(N4CCCc5ncccc54)n[nH]c3n1)CC2 (centres undefined) + CCn1c(-c2cccnc2C(C)OC)c2c3cc(ccc31)N1CCOC(CC(NC(=O)C(C(C)C)N(C)C(=O)C3(F)CCN(C(=O)C#CC(C)(C)N(C)C)CC3)C(=O)N3CCCC(N3)C(=O)OCC(C)(C)C2)C1	60.3%
CC(Nc1ccc2c(c1)OCCn1cc(N3C(=O)OCC3C(F)F)nc1-2)C(N)=O (centres undefined) + CCn1c(-c2cccnc2C(C)OC)c2c3cc(ccc31)N1CCOC(CC(NC(=O)C(C(C)C)N(C)C(=O)C3(F)CCN(C(=O)C#CC(C)(C)N(C)C)CC3)C(=O)N3CCCC(N3)C(=O)OCC(C)(C)C2)C1	49.8%

Switching to the query record.
What viability, T/C appears in the records for this compound with 521955-158-R2-J5-PDC complex spheroids, viability? C=CC(=O)Nc1cc(Nc2nccc(-c3cn(C)c4ccccc34)n2)c(OC)cc1N(C)CCN(C)C + CCn1c(-c2cccnc2C(C)OC)c2c3cc(ccc31)N1CCOC(CC(NC(=O)C(C(C)C)N(C)C(=O)C3(F)CCN(C(=O)C#CC(C)(C)N(C)C)CC3)C(=O)N3CCCC(N3)C(=O)OCC(C)(C)C2)C1
80%

From: PubChem BioAssay AID2060900
